biological target: PDE-5 enzyme (human blood platelets) (Homo sapiens (Human)); assay: PDE-5 enzyme assay, [3H]cGMP; format: biochemical
readoutName: pIC50
Just the number, please; pIC50 means minus log10 of the concentration in mol/L.

Lab book: pIC50 of COc1ccc(CNc2nc(N3CCC[C@H]3CO)ncc2C(=O)N[C@H]2CC[C@H](O)CC2)cc1Cl [WO-88, reference compound] noted as 9.23

====

// reported Cl_obs for each item listed
assay: Pharmacokinetics (PK) in SD rats; type: in vivo; conditions: rat, intravenous injection, 1 mg/kg
Give the value in mL/min/kg but do not write mL/min/kg after it.

compound="COc1ccc(CNc2nc(N3CCC4(CC4)C3)ncc2C(=O)N[C@H]2CC[C@H](O)CC2)cc1Cl [Compound 38]" readoutname=Cl_obs endpointresult=16.8

Recorded Cl_obs (compound COc1ccc(CNc2nc(N3CC4CC4C3CO)ncc2C(=O)NCc2ccccc2)cc1Cl (stereo not shown) ): 80.2

Measured Cl_obs of COc1ccc(CNc2nc(N3CC4CC4C3)ncc2C(=O)NCc2ccccn2)cc1Cl (stereo not shown) : 77.2

Per the records, this compound ( COc1ccc(CNc2nc(N3CCC4(CC4)C3)ncc2C(=O)NCc2ccccn2)cc1Cl ) has Cl_obs equal to 81.3

// sample COc1ccc(CNc2nc(N3Cc4cccnc4C3)ncc2C(=O)N[C@H]2CC[C@H](O)CC2)cc1Cl [WO-93, reference compound] , its Cl_obs was 25

// field: Cl_obs; key: COc1ccc(CNc2nc(N3CCC[C@H]3CO)ncc2C(=O)N[C@H]2CC[C@H](O)CC2)cc1Cl [WO-88, reference compound] ; value = 48.3

The recorded Cl_obs for entry COc1ccc(CNc2nc(N3CCC4(CC4)C3)ncc2C(=O)N[C@H]2CC[C@H](O)CC2)cc1Cl (stereo in doubt) [Compound 43] equals 53.8

====

assay: Pharmacokinetics (PK) in SD rats; format: in vivo; conditions: SD, plasma, po; rat, intragastric administration, 5 mg/kg
readoutName: Tmax (h)
Quick reminder: number only, in h, skip the unit.

These recorded examples may help you get a feel for the data.
compound="CCOc1ccc(CNc2nc(N3CC4CC4C3)ncc2C(=O)N[C@H]2CC[C@H](O)CC2)cc1F (stereo partly shown)" endpointresult=4
compound="COc1ccc(CNc2nc(N3CC4CC4C3)ncc2C(=O)N[C@H]2CC[C@H](O)CC2)cc1F (stereo partly shown)" endpointresult=2

// Tmax lookup, compound = COc1ccc(CNc2nc(N3CC4CC4C3)ncc2C(=O)N[C@H]2CC[C@H](O)CC2)cc1C(F)(F)F (stereo partly shown) , result: 4

Data point: CCOc1ccc(CNc2nc(N3CC4CC4C3)ncc2C(=O)N[C@H]2CC[C@H](O)CC2)cc1C (stereo partly shown) ; Tmax = 6

====

test: Pharmacokinetics (PK) in SD rats; type: in vivo; details: SD, plasma; rat, intravenous injection, 2 mg/kg
Reported half-life values are given for each entry in this list.
Please reply with the bare figure in h and do not write the unit itself.

// solved cases for half-life follow
molecule="COc1ccc(CNc2nc(N3CC4CC4C3)ncc2C(=O)N[C@H]2CC[C@H](O)CC2)cc1C (some centres unmarked)" readoutname=half-life unitofmeasure=h endpointresult=4.1
molecule="CCOc1ccc(CNc2nc(N3CC4CC4C3)ncc2C(=O)N[C@H]2CC[C@H](O)CC2)cc1F (some centres unmarked)" readoutname=half-life unitofmeasure=h endpointresult=3.9
molecule="COc1ccc(CNc2nc(N3CC4CC4C3)ncc2C(=O)N[C@H]2CC[C@H](O)CC2)cc1C(F)(F)F (some centres unmarked)" readoutname=half-life unitofmeasure=h endpointresult=1.8
molecule="CCOc1ccc(CNc2nc(N3CC4CC4C3)ncc2C(=O)N[C@H]2CC[C@H](O)CC2)cc1Cl (some centres unmarked)" readoutname=half-life unitofmeasure=h endpointresult=4.6

Now take the following molecule into account.
Just so you know, measured half-life for CCOc1ccc(CNc2nc(N3CC4CC4C3)ncc2C(=O)N[C@H]2CC[C@H](O)CC2)cc1C(F)(F)F (some centres unmarked) came out at 2.3

====

Entries and their measured Vss_obs follow.
assay: Pharmacokinetics (PK) in SD rats; format: in vivo; conditions: rat, intravenous injection, 1 mg/kg
The response must be a number in L/kg with no trailing unit.

Take a look at these entries with their results.
compound="COc1ccc(CNc2nc(N3CC4CC4C3)ncc2C(=O)NCc2ccccn2)cc1Cl (stereo not shown) [Compound 2]" endpointresult=10.57
compound="COc1ccc(CNc2nc(N3CCC4(CC4)C3)ncc2C(=O)N[C@H]2CC[C@H](O)CC2)cc1Cl (stereo in doubt) [Compound 43]" endpointresult=5.18
compound="COc1ccc(CNc2nc(N3CCC4(CC4)C3)ncc2C(=O)NCCN2CCN(C)CC2)cc1Cl [Compound 46]" endpointresult=86.40

Record COc1ccc(CNc2nc(N3CCC4(CC4)C3)ncc2C(=O)NCc2ncccn2)cc1Cl [Compound 41] , field Vss_obs: 6.62
